Attribution: patent US20050112551A1

Below, each of the compounds is paired with its reported Dual Reporter Assay TI (therapeutic index, CC50/EC50) value.
tested on: VSV/HIVLuc infection of HeLa HRLuc cells

CC(C)c1nc(COC(N)=O)n(Cc2ccncc2)c1Sc1cc(Cl)cc(Cl)c1; 24,266
CC(C)Nc1cccnc1N1CCN(C(=O)c2cc3cc(NS(C)(=O)=O)ccc3[nH]2)CC1; >5000
Cc1cn([C@H]2C[C@H](N=[N+]=[N-])[C@@H](CO)O2)c(=O)[nH]c1=O; >11,034
O=C1Nc2ccc(Cl)cc2[C@@](C#CC2CC2)(C(F)(F)F)O1; 179,250
Cc1cn([C@H]2C=C[C@@H](CO)O2)c(=O)[nH]c1=O; >119

response.value for `Nc1ccn([C@@H]2CS[C@H](CO)O2)c(=O)n1` (field: Dual Reporter Assay TI (therapeutic index, CC50/EC50)) = >229

response.value for `O=C(O)C(=O)CC(=O)c1cccn1Cc1ccc(F)cc1` (field: Dual Reporter Assay TI (therapeutic index, CC50/EC50)) = 92.2

response.value for `Cc1ccnc2c1NC(=O)c1cccnc1N2C1CC1` (field: Dual Reporter Assay TI (therapeutic index, CC50/EC50)) = >1032
